# TEST SYSTEM: T1, Ang2 with I434 mutated with alanine, tagged with FLAG (human, UniProt O15123 19-496, limits assumed)
# T1 sequence: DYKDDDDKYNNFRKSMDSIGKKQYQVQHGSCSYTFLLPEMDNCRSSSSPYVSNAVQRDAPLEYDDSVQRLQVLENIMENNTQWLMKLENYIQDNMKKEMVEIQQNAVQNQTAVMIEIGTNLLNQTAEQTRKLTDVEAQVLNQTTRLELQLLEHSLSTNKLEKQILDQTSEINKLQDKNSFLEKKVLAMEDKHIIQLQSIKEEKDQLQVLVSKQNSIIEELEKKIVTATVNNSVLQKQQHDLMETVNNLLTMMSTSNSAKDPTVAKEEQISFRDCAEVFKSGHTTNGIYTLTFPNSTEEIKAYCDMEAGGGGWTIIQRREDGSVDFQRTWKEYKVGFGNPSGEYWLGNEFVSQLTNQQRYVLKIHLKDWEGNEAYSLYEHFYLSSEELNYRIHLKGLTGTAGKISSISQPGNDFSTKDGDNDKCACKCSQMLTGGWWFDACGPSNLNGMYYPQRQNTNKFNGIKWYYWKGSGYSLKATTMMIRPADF
# EXPERIMENT SUMMARY: ELISA, scFv coated, 250 ng FLAG-tagged Ang2 mutant, anti-FLAG-HRP
QUANTITY NAME: Relative binding (%) with Mutant Ang2 compared to the binding with native Ang2
# unit: % | format: bare number

BINDER	TEST VALUE
SAIT-ANG-2-AB-4-C11 (scFv form) (scFv, V domains shown, scFv from a phage display library) VH: EVQLLESGGGLVQPGGSLRLSCAASGFTFSDYAMSWVRQAPGKGLEWVSSIYPDDGNTYYADSVKGRFTISRDNSKNTLYLQMNSLRAEDTAVYYCARHTSHHTSIDGYYYYGMDGWGQGTLVTVSS VL: QSVLTQPPSASGTPGQRVTISCTGSSSNIGNNDVSWYQQLPGTAPKLLIYSDSKRPSGVPDRFSGSKSGTSASLAISGLRSEDEADYYCGSWDYSLSGYVFGGGTKLTVLG	7.2

-- ask Returns the measured Relative binding (%) with Mutant Ang2 compared to the binding with native Ang2 for the input binder. Input: SAIT-ANG-2-AB-2-E6 (scFv form) (scFv, V domains shown, scFv from a phage display library, partly purified from E. coli periplasm on Ni-NTA and detected with anti-HA) VH: EVQLLESGGGLVQTGGSLRLSCAASGFTFSDYAMSWVRQAPGKGLEWVSAIYPDSGNKYYADSVKGRFTISRDNSKNTLYLQMNSLRAEDTAVYYCARHSSDPKVKSGYYDDGMDVWGQGTLVAVSS VL: QSVLTQPPSASGTPGQRVTISCSGSSSNIGNNAVNWYQQLPGTAPKLLIYADSNRPSGVPDRFSGSKSGTSASLAISGLRSEDEADYYCGSWDYSLSGYVFGGGTKLTVLG
-- reply 5.3

-- ask Fill blank: measured Relative binding (%) with Mutant Ang2 compared to the binding with native Ang2 of the binder SAIT-ANG-2-AB-4-F11 (scFv form) (scFv, V domains shown, scFv from a phage display library) VH: EVQLLESGGGLVQTGGSLRLSCAASGFTFSDYAMSWVRQAPGKGLEWVSSIYPDDGNTYYADSVKGRFTISRDNSKNTLYLQMNSLRAEDTAVYYCAKHPVRLNLHPMYYYYGMDVWGQGTLVTVSS VL: QSVLTQPPSASGTPGQRVTISCTGSSSNIGNNAVSWYQQLPGTAPKLLIYSDSQRPSGVPDRFSGSKSGTSASLAISGLRSEDEADYYCATWDYSLSAYVFGGGTKLTVLG is ____.
-- reply 69
